Test system: T-47D breast
Assay: NCI-60 one-dose screen, 48 h (100 = growth as untreated, 0 = no growth, -100 = all killed)
Details: 10 µM unless noted
The panel holds about 83,000 compounds, 20% with a hit somewhere; the sample as a whole holds those more often.
Threshold rule: growth greater than or equal to 50% is condition met; below that, condition not met.

Solved entries (count: 6):
Fc1ccc(-n2cc(COc3ncnc4sc5c(c34)CCCC5)nn2)cc1Cl | condition met
Cc1ccc2[nH]c(=O)cc(-n3nncc3COc3ccc(C=O)cc3)c2c1 | condition met
COc1ccc(-c2nc(N/N=C/c3cccc(O)c3)nc(N3CCOCC3)c2C#N)cc1 | condition met
COc1cc(OC)c(/C=C/C(=O)c2ccc(Nc3ncnc4ccccc34)cc2)c(OC)c1 | condition not met
Fc1ccccc1CSc1ncnc2nc[nH]c12 | condition met
COc1ccccc1Nc1cc(O)c2c(=O)cc(-c3ccccc3)oc2c1 | condition not met

// next entry
Input line: I'd appreciate it if you could say whether `COc1ccc2c(c1)OC13Oc4cc(OC)ccc4C=C1CCCC3=C2` has growth at least equal to 50%.
Output line: condition not met

---

Tested on: SK-OV-3 ovarian
Experiment: NCI-60 one-dose screen, 48 h (100 = growth as untreated, 0 = no growth, -100 = all killed)
Conditions: 10 µM unless noted
The panel holds about 83,000 compounds, 20% with a hit somewhere; the sample as a whole holds those more often.
Recorded Metric: growth (%)
Your answer should be a plain number; it is taken to be in %.

Worked set:
O=C1c2ccccc2C(=O)c2c(NCCN=Cc3ccccc3O)cccc21 | 56.9
COc1cc(/C=C/C(=O)c2c(C)oc3nc[nH]c(=O)c23)ccc1O | 103
CC(O)(CO)c1ccccc1 (configuration not stated) | 106
CC(=O)N1N=C(c2cccc(Nc3ccncc3)c2)CC1c1ccc2c(c1)OCO2 (configuration not stated) | 78.3
Cc1cccc(Oc2ccc(Nc3ncnc4ccc(NC(=O)CNCCO)cc34)cc2Cl)c1 | 10.8
Cc1cc(C(=O)Nc2ncnc3nc[nH]c23)no1 | 97.2

Measured growth for this entry O=C(Nc1ccc(Nc2ncccn2)cc1)NC1C=c2ccccc2=CC1 (configuration not stated) on SK-OV-3 ovarian: 106

---

System: A549/ATCC NSCLC
Assay: NCI-60 one-dose screen, 48 h (100 = growth as untreated, 0 = no growth, -100 = all killed)
Details: 10 µM unless noted
This is part of a sample that, as a whole, favours compounds with a hit. Of some 83,000 tested, about 20% had one in any assay.
Recorded Metric: growth (%)
Give the number; % is assumed, so skip it.

The following compounds have reported results that may help.
O=C1OC(=O)C2C1CC=CC2c1ccccc1 (centres undefined) | 88
O=S(=O)(c1ccccc1)N1CCCc2ccccc21 | 91.4

Reported growth for `COc1cc(-c2cc(=O)oc3cc(O)ccc23)cc(OC)c1OC` was 90.1

So for COc1cc(NCC(C)(O)CN(CC(C)C)CC(C)C)c2nc(C)ccc2c1 (centres undefined) , the logged growth turned out to be 91

---

System: KM12 colon
Test: NCI-60 one-dose screen, 48 h
Settings: 10 µM unless noted
The panel holds about 83,000 compounds, 20% with a hit somewhere; the sample as a whole holds those more often. Active and inactive are the calls of the source. Rule for the calls: active = growth percent below 10; inactive = the rest.
Lab note: assign the record to one of y = active, n = inactive

CCc1c(Nc2ccc(C)cc2)nc(N)[nH]c1=O | n
C[C@]12C[C@H]1CC[C@]1(C)[C@@H]2CC[C@@]23C[C@H](CC[C@H]21)[C@@](O)(CO)C3 | n
c1cnc2nc3c(cc2c1)oc1ccccc13 | n
O=C1Nc2c(ccc(Cl)c2Cl)/C1=C/c1ccccn1 | n
CCNNC(=O)[C@@H]1[C@H](c2cc(OC)c(OC)c(OC)c2)c2cc3c(cc2[C@H](O)[C@H]1CO)OCO3 | y

Input line: What was the test verdict on CCN1C(=O)/C(=c2\sc3n(c2=O)NC2C(N=3)N(CC)C(=O)N2CC)c2ccccc21 (stereo not drawn) ?
Output line: n
